Answer each item with its documented inhibition at 20 µM.
System: A549
procedureDetails: Cytotoxicity against human A549 cells assessed as inhibition of cell growth at 20 uM measured after 72 hrs by MTT assay relative to control
Format: functional
Your answer should be a plain number; it is taken to be in %.

Request: inhibition at 20 µM, test system A549, entry CNC(=O)c1cc(Oc2ccc(Nc3nccc(N4CCOCC4)n3)cc2)ccn1
66.3

Same question, c1ccc2c(c1)CCN(c1ccnc(Nc3ccc(Oc4ncnc5sccc45)cc3)n1)C2 this time
34

Same question, CN(c1ccc(Oc2ncnc3ccsc23)cc1)c1nccc(N2CCc3ccccc3C2)n1 this time
69.9

Same question, CNC(=O)c1cc(Oc2ccc(Nc3nccc(N4CCc5ccccc5C4)n3)cc2)ccn1 this time
59.6

Same question, c1cc(N2CCOCC2)nc(Nc2ccc(Oc3ncnc4ccsc34)cc2)n1 this time
57.9

Same question, c1cc(N2CCCCC2)nc(Nc2ccc(Oc3ncnc4sccc34)cc2)n1 this time
64.8

Same question, CNC(=O)c1cc(Oc2ccc(Nc3nccc(N4CCCC4)n3)cc2)ccn1 this time
59.6

Same question, CN(c1ccc(Oc2ncnc3ccsc23)cc1)c1nccc(N2CCCCC2)n1 this time
65.7

Same question, CN(c1ccc(Oc2ncnc3ccsc23)cc1)c1nccc(N2CCCC2)n1 this time
63.9

Same question, c1ccc2c(c1)CCN2c1ccnc(Nc2ccc(Oc3ncnc4sccc34)cc2)n1 this time
2.81

Same question, CN(c1ccc(Oc2ncnc3sccc23)cc1)c1nccc(N2CCc3ccccc32)n1 this time
29.4

Same question, c1cc(N2CCOCC2)nc(Nc2ccc(Oc3ncnc4sccc34)cc2)n1 this time
36.7

Same question, c1cc(N2CCCC2)nc(Nc2ccc(Oc3ncnc4sccc34)cc2)n1 this time
61

Same question, c1cc(N2CCCCC2)nc(Nc2ccc(Oc3ncnc4ccsc34)cc2)n1 this time
59.9

Same question, CN(c1ccc(Oc2ncnc3sccc23)cc1)c1nccc(N2CCCC2)n1 this time
55.5

Same question, c1ccc(CNc2ccc(Oc3ncnc4ccsc34)cc2)cc1 this time
30.6

Same question, c1ccc2c(c1)CCN(c1ccnc(Nc3ccc(Oc4ncnc5ccsc45)cc3)n1)C2 this time
54.9

Same question, CN(c1ccc(Oc2ncnc3sccc23)cc1)c1nccc(N2CCCCC2)n1 this time
51.9

Same question, CCN(CC)c1ccc(C(=O)Nc2ccc(Oc3ncnc4ccsc34)cc2)cc1 this time
63.8
